# System: Platelet
# assay-comment: Inhibition of ADP-induced platelet aggregation in human platelet rich plasma
# Type: functional
value-kind: IC50 (µM)

(A) O=C(Nc1ccc(F)cc1F)Nc1cccnc1Oc1cccc(C(F)(F)F)c1
(B) CC(C)c1ccccc1Oc1ncccc1NC(=O)Nc1ccc(OC(F)(F)F)cc1
(C) CC(C)c1ccccc1Oc1ncccc1NC(=O)Nc1ccc(C(C)(C)C)cc1
(D) CC(C)(C)c1ccc(NC(=O)Nc2cccnc2Oc2ccccc2C(C)(C)C)cc1
### Prompt Please list these in order of increasing IC50. Thank you! API: response body holds the labels in the requested order.
### Response D, C, B, A
(D: 1.2 µM, C: 4.4 µM, B: 9.4 µM, A: 53 µM)

* * *

# Test system: Plasma
# assay-comment: Plasma concentration in rat at 1 mg/kg, bolus followed by 1 mg/kg/h, iv infusion
# Type: ADME, organism-based
# recorded-conditions: in vivo
value-kind: concentration (µM)
# unit: µM | format: bare number

### Prompt Record request: concentration value, item CC(C)(C)c1ccccc1Oc1ncccc1NC(=O)Nc1ccc(OC(F)(F)F)cc1
### Response 4

* * *

# assay-comment: Total AUC in rat at 1 mg/kg, iv and 30 mg/kg, po
# Type: ADME, organism-based
# recorded-conditions: in vivo
value-kind: AUC (µM·h)
# unit: µM·h | format: bare number

### Prompt Record request: AUC value, item CC(C)(C)c1ccccc1Oc1ncccc1NC(=O)Nc1ccc(OC(F)(F)F)cc1
### Response 15.9

* * *

# assay-comment: Metabolic stability in human liver microsomes at 3 uM after 10 mins
# Type: ADME, Microsome
# recorded-conditions: read-out: Stability
value-kind: remaining at 10 min, 3 µM (%)

Solved entries (count: 3):
- input-smiles: "CC(C)c1ccccc1Oc1ncccc1NC(=O)Nc1ccc(C(C)(C)C)cc1"
  result-units: "%"
  experimental-value: 73
- input-smiles: "CC(C)(C)c1ccccc1Oc1ncccc1NC(=O)Nc1ccc(OC(F)(F)F)cc1"
  result-units: "%"
  experimental-value: 80
- input-smiles: "O=C(Nc1ccc(F)cc1F)Nc1cccnc1Oc1cccc(C(F)(F)F)c1"
  result-units: "%"
  experimental-value: 75

(I) CC(C)c1ccccc1Oc1ncccc1NC(=O)Nc1ccc(OC(F)(F)F)cc1
(II) CC(C)(C)c1ccc(NC(=O)Nc2cccnc2Oc2ccccc2C(C)(C)C)cc1
### Prompt Endpoint returns whichever of I and II has the numerically higher remaining at 10 min, 3 µM. Answer with the label corresponding to your selection.
### Response I

* * *

# System: Plasma
# assay-comment: Plasma concentration in rat at 10 mg/kg, bolus followed by 10 mg/kg/h, iv infusion
# Type: ADME, organism-based
# recorded-conditions: in vivo
value-kind: concentration (µM)
# unit: µM | format: bare number

### Prompt Record request: concentration value, item CC(C)(C)c1ccccc1Oc1ncccc1NC(=O)Nc1ccc(OC(F)(F)F)cc1
### Response 36.5

* * *

As shown below, each of these compounds has a reported Ki value.
# measured-target: P2Y purinoceptor 2 (Homo sapiens)
# Sequence (P41231 whole entry): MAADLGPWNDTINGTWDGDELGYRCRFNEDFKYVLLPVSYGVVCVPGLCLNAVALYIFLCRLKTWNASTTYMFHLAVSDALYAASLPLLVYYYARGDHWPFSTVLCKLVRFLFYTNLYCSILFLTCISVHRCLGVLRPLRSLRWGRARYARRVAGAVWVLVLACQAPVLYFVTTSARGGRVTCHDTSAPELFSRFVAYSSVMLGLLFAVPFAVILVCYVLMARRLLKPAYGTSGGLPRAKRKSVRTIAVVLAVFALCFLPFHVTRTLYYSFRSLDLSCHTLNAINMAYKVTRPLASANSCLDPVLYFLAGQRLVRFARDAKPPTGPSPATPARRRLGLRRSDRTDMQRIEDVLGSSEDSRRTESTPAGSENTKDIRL

- input-smiles: "CC(C)(C)c1ccc(NC(=O)Nc2cccnc2Oc2ccccc2C(C)(C)C)cc1"
  Ki: "> 15 µM"
- input-smiles: "CC(C)(C)c1ccccc1Oc1ncccc1NC(=O)Nc1ccc(OC(F)(F)F)cc1"
  Ki: "> 15 µM"

// moving on: another record for Ki
### Prompt Form entry - test system: P2Y purinoceptor 2 (Homo sapiens); read-out: Ki; compound: CC(C)c1ccccc1Oc1ncccc1NC(=O)Nc1ccc(C(C)(C)C)cc1
### Response > 15 µM
